biological target: human folate receptor alpha (hFOLR1) on cells (human, UniProt P15328 25-234); test: cell-based or functional assay
Sequence (P15328 25-234 limits assumed): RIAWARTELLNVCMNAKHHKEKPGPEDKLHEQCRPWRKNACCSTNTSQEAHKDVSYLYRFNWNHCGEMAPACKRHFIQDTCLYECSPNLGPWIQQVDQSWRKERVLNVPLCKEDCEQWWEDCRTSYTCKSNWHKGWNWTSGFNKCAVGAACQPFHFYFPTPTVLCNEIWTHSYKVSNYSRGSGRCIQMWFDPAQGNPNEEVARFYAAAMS
Below, each entry is listed with its recorded Igrov 2° Antibody Cell Killing, Nb-SC239, span.
RECORDED_METRIC: Igrov 2° Antibody Cell Killing, Nb-SC239, span (%)

SRP2060-E05 (antibody, V domains shown) VH: EVQLLESGGGLVQPGGSLRLSCAFSGFSLSTFGMGVGWVRQAPGKGLEWVSHIWWDDDKYYHPALKGRFTVSKDNSKNTVYLQMNSLRAEDTAVYYCGRNHFPHYYGSSHWYFNVWGQGTTVTVSS VL: EIVMTQSPATLSLSPGERATLSCKASQDINSYLSWYQQKPGQAPRLLIYRANRLVDGIPARFSGSGSGTDYTLTISSLEPEDFAVYYCLQYDEFPYTFGGGTKVEIK | 71
SRP2060-E10 (antibody, V domains shown) VH: EVQLLESGGGLVQPGGSLRLSCAFSGFSLSTFGMGVGWVRQAPGKGLEWVSHIWWDDDKYYHPALKGRFTISKDNSKNTVYLQMNSLRAEDTAVYYCGRNHFPHYYGSSHWYFNVWGQGTTVTVSS VL: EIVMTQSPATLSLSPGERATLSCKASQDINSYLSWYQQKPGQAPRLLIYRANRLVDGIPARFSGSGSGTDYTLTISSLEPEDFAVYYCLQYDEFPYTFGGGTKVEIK | 68
SRP2060-A06 (antibody, V domains shown) VH: EVQLLESGGGLVQPGGSLRLSCAFSGFSLSTFGMGVGWVRQAPGKGLEWVGHIWWDDDKYYYPALKGRFTISKDNSKNTVYLQMNSLRAEDTAVYYCGRNHFPHYYGSSHWYFDVWGQGTTVTVSS VL: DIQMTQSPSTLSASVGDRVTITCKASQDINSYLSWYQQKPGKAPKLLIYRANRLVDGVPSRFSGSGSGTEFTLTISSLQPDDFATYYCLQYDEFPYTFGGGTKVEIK | 66

Recorded values, source patent US20220047716A1.
